Ref: paper PMC10385850

Tested on: F. hepatica newly excysted juveniles (NEJs), Italian strain
Test: Ex vivo screen against newly excysted juveniles (NEJs), phenotype and motility scoring
Type: cell-based, Fasciola hepatica
Conditions: 10 µM, 24 h; motility score 1 good/normal to 5 no movement
Experimental: […] The NEJs were excysted from metacercariae and assayed at 10 μM (in 0.1% DMSO) final concentration alongside negative (0.1% DMSO) and positive (10 μM TCBZ, in 0.1% DMSO) controls as previously described. The MC and IVL compound series were screened separately. The motility (1—good/normal; 2—moderate; 3—low; 4—very little; 5—no movement) and phenotypic (ultrastructural changes) scores were noted according to a previously described scoring matrix (Figure S1 and Table S2).
// values below are reported Average motility of 25 NEJs with 95% CI, 24 hours

// below: answered molecules
MOLECULE	READING
CCCCCCCCCCCCCCCC(=O)OC[C@]12CCC(C)(C)CC1C1=CCC3[C@@]4(C)CCC5OC(C)(C)OC[C@@]5(C)C4CC[C@@]3(C)[C@]1(C)CC2 (stereo partly drawn) [MC032]	3.20 (2.6;3.7)
CC1(C)CC[C@]2(NC(=O)N[C@H]3C(O)O[C@H](CO)[C@@H](O)[C@@H]3O)CC[C@]3(C)C(=CCC4[C@@]5(C)CCC6OC(C)(C)OC[C@@]6(C)C5CC[C@]43C)C2C1 (stereo partly drawn) [MC028]	2.32 (1.8;2.7)
CC1(C)CC[C@]2(NC(=O)NCc3ccccc3)CC[C@]3(C)C(=CCC4[C@@]5(C)CCC6OC(C)(C)OC[C@@]6(C)C5CC[C@]43C)C2C1 (stereo partly drawn) [MC017]	4.12 (3.7;4.5)
CC(=O)OC[C@@]1(C)C2CC[C@]3(C)C(CC=C4C5CC(C)(C)CC[C@]5(NC(=O)N5CCCC5)CC[C@]43C)[C@@]2(C)CC[C@@H]1O (stereo partly drawn) [MC057]	5.00 (5.0;5.0)

Prompt: What measured Average motility of 25 NEJs with 95% CI, 24 hours goes with COC(=O)[C@H](Cc1c[nH]cn1)NC(=O)N[C@]12CCC(C)(C)CC1C1=CCC3[C@@]4(C)CC[C@@H]5OC(C)(C)OC[C@@]5(C)C4CC[C@@]3(C)[C@]1(C)CC2 (stereo partly drawn) [MC048] ?
Completion: 1.40 (1.2;1.5)

Prompt: Please give the result for CC1(C)CC[C@]2(NC(=O)N[C@H]3C(O)O[C@H](CO)[C@@H](O)[C@@H]3O)CC[C@]3(C)C(=CCC4[C@@]5(C)CC[C@H](O)[C@@](C)(CO)C5CC[C@]43C)C2C1 (stereo partly drawn) [MC030] too.
Completion: 3.20 (2.6;3.7)

Prompt: What would you report for CC(=O)OCC1(C)C(OC(C)=O)CCC2(C)C1CCC1(C)C2CC=C2C3CC(C)(C)CCC3(NC(=O)N3CCCC3)CCC21C (stereo not drawn) [MC056] ?
Completion: 5.00 (5.0;5.0)

====

Listed here are compounds together with their documented Average motility of 25 NEJs with 95% CI, 24 hours.
system: F. hepatica newly excysted juveniles (NEJs), Italian strain; test: Ex vivo screen against newly excysted juveniles (NEJs), phenotype and motility scoring; format: cell-based, Fasciola hepatica; details: 10 µM, 24 h; motility score 1 good/normal to 5 no movement

COMPOUND	READING
CC(=O)OC[C@]12CCC(C)(C)CC1C1=CCC3[C@@]4(C)CC[C@H](O)[C@@](C)(CO)C4CC[C@@]3(C)[C@]1(C)CC2 (some centres unmarked)	5.00 (5.0;5.0)
CCCCOC(=O)N[C@]12CCC(C)(C)CC1C1=CCC3[C@@]4(C)CCC5OC(C)(C)OC[C@@]5(C)C4CC[C@@]3(C)[C@]1(C)CC2 (some centres unmarked)	2.24 (1.7;2.7)
CC1(C)CC[C@]2(NC(N)=O)CC[C@]3(C)C(=CCC4[C@@]5(C)CCC6OC(C)(C)OC[C@@]6(C)C5CC[C@]43C)C2C1 (some centres unmarked)	5.00 (5.0;5.0)
CC1(C)CC[C@]2(NC(=O)N3CCC[C@H]3C(=O)O)CC[C@]3(C)C(=CCC4[C@@]5(C)CCC6OC(C)(C)OC[C@@]6(C)C5CC[C@]43C)C2C1 (some centres unmarked)	3.80 (3.4;4.1)

Prompt: Which value of Average motility of 25 NEJs with 95% CI, 24 hours has been reported for CC1(C)CC[C@]2(NC(=O)N3CCCC3)CC[C@]3(C)C(=CCC4[C@@]5(C)CCC6OC(C)(C)OC[C@@]6(C)C5CC[C@]43C)C2C1 (some centres unmarked) in the records?
Completion: 5.00 (5.0;5.0)
